Assay: Boiling temperature at pressure P
Details: 101.3 kPa; Liquid; ebulliometry
Boiling temperature at pressure P reference
value_type: Boiling temperature at pressure P (°C)

[[record]]
compound = "ClC(Cl)C(Cl)Cl [1,1,2,2-tetrachloroethane]"
endpoint_value = 146.20

[[record]]
compound = "ClCCCl [1,2-dichloroethane]"
endpoint_value = 83.80

[[record]]
compound = "CC(Cl)(Cl)Cl [1,1,1-trichloroethane]"
endpoint_value = 74.20

[[record]]
compound = "CN1CCCC1=O [N-methylpyrrolidone]"
endpoint_value = 202.30

[[record]]
compound = "ClC=C(Cl)Cl [trichloroethene]"
endpoint_value = 87.10

[[record]]
compound = "ClC(Cl)=C(Cl)Cl [tetrachloroethene]"
endpoint_value = 121.00

